test: log P by HPLC on reversed-phase column (C18), EEC Directive 79/831 Annex V.A8
Format: physicochemical
test conditions: reversed-phase HPLC column (C18), logP Method A
Quick reference for chromatographic logP among some compounds
readout: chromatographic logP

[[record]]
compound = "Cc1nc2c(F)c(F)ccc2cc1Oc1ccccc1N [IVa.05]"
reported_measurement = 2.99

[[record]]
compound = "Fc1cccc(Nc2cc3ccccc3nc2C(F)F)c1 [VII.03A]"
reported_measurement = 3.68

[[record]]
compound = "CC[Si](CC)(CC)c1c(O)cccc1F [IX.02A]"
reported_measurement = 4.69

[[record]]
compound = "Cc1nc2ccccc2cc1Oc1cccc(CCO)c1Br [II.03A]"
reported_measurement = 2.14

[[record]]
compound = "Cc1nc2ccccc2cc1Oc1cccc(CCCl)c1Br [II.08A]"
reported_measurement = 3.99

[[record]]
compound = "Fc1cccc(Oc2cnc3ccccc3c2)c1 [VIIa.05, 3-(3-fluorophenoxy)quinoline]"
reported_measurement = 3.21


---

test: log P by HPLC on reversed-phase column (C18), EEC Directive 79/831 Annex V.A8
Type: physicochemical
test conditions: Method A: 40° C., 0.1% aqueous formic acid and acetonitrile
Quick reference for logP among some compounds
readout: logP

[[record]]
compound = "Cc1nc2c(F)c(F)ccc2nc1Oc1ccc(Cl)cc1[Si](C)(C)O"
reported_measurement = 4.01

[[record]]
compound = "Cc1nc2c(F)c(F)ccc2nc1Oc1cc(F)ccc1[Si](C)(C)C"
reported_measurement = 5.57

[[record]]
compound = "C[Si](C)(C)c1c(F)cccc1Oc1cnc2c(F)c(F)ccc2c1"
reported_measurement = 5.32

[[record]]
compound = "C[Si](C)(C)c1ccccc1Oc1cnc2c(F)c(F)ccc2c1"
reported_measurement = 5.39

[[record]]
compound = "CC[Si](C)(C)c1ccccc1Oc1cnc2c(F)c(F)ccc2n1"
reported_measurement = 5.62

[[record]]
compound = "C[Si](C)(C)c1c(F)cccc1C(O)c1cnc2ccccc2c1 (centres unmarked)"
reported_measurement = 4.16

[[record]]
compound = "C=Cc1ccc(Oc2cc3ccccc3nc2C)c([Si](C)(C)C)c1"
reported_measurement = 5.51

[[record]]
compound = "Cc1nc2c(F)c(F)ccc2nc1Oc1cccc(F)c1[Si](C)(C)F"
reported_measurement = 4.75

[[record]]
compound = "C[Si](C)(O)c1c(F)cccc1Oc1cnc2ccccc2c1"
reported_measurement = 2.90

[[record]]
compound = "C[Si](C)(C)c1ccccc1Nc1cnc2ccccc2c1"
reported_measurement = 3.46

[[record]]
compound = "CC[Si](C)(C)c1c(F)cccc1Oc1cc2ccccc2nc1C"
reported_measurement = 5.62

[[record]]
compound = "Cc1nc2ccccc2nc1Oc1ccccc1[Si](C)(C)C"
reported_measurement = 5.31

[[record]]
compound = "C[Si](C)(O)c1c(F)cccc1Oc1cnc2c(F)c(F)ccc2c1"
reported_measurement = 2.35

[[record]]
compound = "CC[Si](C)(C)c1c(F)cccc1Oc1cc2ccccc2[n+]([O-])c1C"
reported_measurement = 4.54

[[record]]
compound = "CC[Si](CC)(CC)c1ccccc1Oc1cnc2ccccc2n1"
reported_measurement = 6.43

[[record]]
compound = "Cc1nc2ccccc2cc1Oc1cccc(F)c1[SiH](C)C"
reported_measurement = 4.56

[[record]]
compound = "CCOc1nc2ccccc2cc1Oc1cccc(F)c1[Si](C)(C)C"
reported_measurement = 6.79


---

test: log P by HPLC on reversed-phase column (C18), EEC Directive 79/831 Annex V.A8
Format: physicochemical
test conditions: reversed-phase HPLC column (C18), Method A: 40° C., 0.1% aqueous formic acid and acetonitrile
Experimental: In table 1, the log P values were determined in accordance with EEC Directive 79/831 Annex V.A8 by HPLC (High Performance Liquid Chromatography) on a reversed-phase column (C18), using the methods described below: Method A: temperature: 40° C.; mobile phases: 0.1% aqueous formic acid and acetonitrile; linear gradient from 10% acetonitrile to 95% acetonitrile; […]
readout: chromatographic logP

[[record]]
molecule = "Cc1nc2ccccc2cc1Oc1cccc(Cl)c1Br"
reported_measurement = 3.99

[[record]]
molecule = "Fc1cccc(Oc2cnc3ccccc3c2)c1"
reported_measurement = 3.21

[[record]]
molecule = "Cc1nc2c(F)cccc2cc1Oc1ccccc1Br"
reported_measurement = 3.96

[[record]]
molecule = "Cc1nc2c(F)c(F)ccc2cc1Oc1c(F)cccc1Br"
reported_measurement = 4.25

[[record]]
molecule = "Fc1cccc(Nc2cc3ccccc3nc2C(F)F)c1Br"
reported_measurement = 4.34

[[record]]
molecule = "Fc1cccc(Oc2cc3ccccc3nc2Cl)c1"
reported_measurement = 3.99

[[record]]
molecule = "Cc1nc2c(F)c(F)ccc2cc1Oc1ccccc1N"
reported_measurement = 2.99

[[record]]
molecule = "Fc1ccc2cc(Oc3ccccc3Br)cnc2c1F"
reported_measurement = 3.92

[[record]]
molecule = "Cc1nc2c(F)c(F)ccc2cc1Oc1ccccc1[Si](C)(C)O"
reported_measurement = 3.51

[[record]]
molecule = "COc1cccc(Oc2cc3ccc(F)c(F)c3nc2C)c1Br"
reported_measurement = 4.11

[[record]]
molecule = "Cc1nc2c(F)c(F)ccc2cc1Oc1cccc(OC(F)(F)F)c1Br"
reported_measurement = 4.9

[[record]]
molecule = "C[Si](C)(c1ccc(Cl)cc1)c1ccccc1CBr"
reported_measurement = 5.94

[[record]]
molecule = "Cc1nc2ccccc2cc1Oc1ccccc1[Si](C)(C)C"
reported_measurement = 4.85

[[record]]
molecule = "Cc1nc2ccccc2cc1Oc1ccc(Cl)cc1Br"
reported_measurement = 4.13

[[record]]
molecule = "[O-][n+]1cc(Oc2cccc(F)c2)cc2ccccc21 [VIIa.06, 3-(3-fluorophenoxy)quinoline 1-oxide]"
reported_measurement = 2.14


---

test: log P by HPLC on reversed-phase column (C18), EEC Directive 79/831 Annex V.A8
Type: physicochemical
test conditions: Method A: 40° C., 0.1% aqueous formic acid and acetonitrile
Quick reference for logP among some compounds
readout: logP

[[record]]
smiles_text = "Cc1nc2c(F)c(F)ccc2nc1Oc1cccc(F)c1[Si](C)(C)O"
readout = "logP"
reported_measurement = 3.67

[[record]]
smiles_text = "C=C[Si](C)(C)c1c(F)cccc1Oc1nc2ccc(F)c(F)c2nc1C"
readout = "logP"
reported_measurement = 5.62

[[record]]
smiles_text = "Cc1c(Cc2ccccc2[Si](C)(C)C)cnc2ccccc12"
readout = "logP"
reported_measurement = 3.19

[[record]]
smiles_text = "CC(C)(C)[Si](C)(C)c1ccccc1Oc1cnc2ccccc2n1"
readout = "logP"
reported_measurement = 6.30

[[record]]
smiles_text = "C[Si](C)(O)c1ccccc1Oc1cnc2ccccc2n1"
readout = "logP"
reported_measurement = 2.86

[[record]]
smiles_text = "C[Si](C)(O)c1c(F)cccc1Oc1cnc2sccc2c1"
readout = "logP"
reported_measurement = 3.09

[[record]]
smiles_text = "Cc1c(Oc2cccc(F)c2[Si](C)(C)C)cnc2ccccc12"
readout = "logP"
reported_measurement = 5.62

[[record]]
smiles_text = "C[Si](C)(c1ccccc1)c1ccccc1Cc1cnc2ccccc2c1"
readout = "logP"
reported_measurement = 4.20

[[record]]
smiles_text = "Cc1nc2ccccc2cc1Oc1cccc(OC(F)(F)F)c1[Si](C)(C)O"
readout = "logP"
reported_measurement = 3.35

[[record]]
smiles_text = "Cc1cccc([Si](C)(C)C)c1Oc1nc2ccc(F)c(F)c2nc1C"
readout = "logP"
reported_measurement = 5.88

[[record]]
smiles_text = "C[Si](C)(C)c1c(F)cccc1Oc1cnc2ccccc2n1"
readout = "logP"
reported_measurement = 5.22

[[record]]
smiles_text = "Cc1nc2ccccc2nc1Oc1cccc(F)c1[Si](C)(C)c1cccs1"
readout = "logP"
reported_measurement = 5.51

[[record]]
smiles_text = "Cc1nc2c(F)c(F)ccc2cc1Oc1ccc(F)cc1[Si](C)(C)O"
readout = "logP"
reported_measurement = 3.55

[[record]]
smiles_text = "Cc1nc2c(F)c(F)ccc2nc1Oc1ccc(Cl)cc1[Si](C)(C)C"
readout = "logP"
reported_measurement = 6.11

[[record]]
smiles_text = "Cc1nc2c(F)c(F)ccc2cc1Oc1cccc(F)c1[Si](C)(C)O"
readout = "logP"
reported_measurement = 3.55


---

Quick reference for logP among some molecules
test: log P by HPLC on reversed-phase column (C18), EEC Directive 79/831 Annex V.A8
Format: physicochemical
test conditions: Method A: 40° C., 0.1% aqueous formic acid and acetonitrile
readout: logP

[[record]]
smiles_text = "C[Si](C)(c1ccc(Oc2ccccc2)cc1)c1ccccc1Cc1cnc2ccccc2c1"
readout = "logP"
reported_measurement = 5.62

[[record]]
smiles_text = "C[Si](C)(C)c1c(F)cccc1Oc1cnc2c(F)c(F)ccc2n1"
readout = "logP"
reported_measurement = 5.20

[[record]]
smiles_text = "Cc1nc2c(F)c(F)ccc2nc1Oc1c(Cl)cccc1[Si](C)(C)O"
readout = "logP"
reported_measurement = 3.96

